Ref: paper PMC3433420

Test target: T1, TNS3 SH2 domain (human, UniProt Q68CZ2 1172-1282)
T1 construct: TNS3, human; source: bacterial expression, purified
T1 sequence (looked up): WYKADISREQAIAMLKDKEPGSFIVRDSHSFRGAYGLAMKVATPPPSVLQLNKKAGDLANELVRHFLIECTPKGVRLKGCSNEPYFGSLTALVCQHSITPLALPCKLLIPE
Assay text: peptide or protein array; SH2/PTB proteins spotted on aldehyde slides, rhodamine peptide titrated in buffer B (20 mM HEPES, 100 mM KCl, 0.1% Tween-20, 5 mM DTT, pH 7.8), 1 h at room temperature; replicate assays
Experimental setup: both partners purified
Non-standard residues stand in square brackets, D forms with d. No end group written: not given here. pY = N[C@@H](Cc1ccc(OP(=O)(O)O)cc1)C(=O)O; Rhodamine = not defined here
Measurement label: pKd
Conceptually, pKd converts a concentration in mol/L into minus its log10.

pKd for Rhodamine-ETDG[pY]VAPLTCSD (reading uncertain) [ErbB2 pY1127 phosphopeptide, rhodamine-labelled, for protein microarrays] is 5.22
